TEST NAME: activity coefficient (dimensionless); of the first substance listed, at infinite dilution; xn = mol fraction of the nth substance listed
PARTICULARS: 322.85 K; Liquid; Chromatography; x1 = 0
Hi there, I'd appreciate the recorded activity coefficient for every entry that follows.
Answers are plain numbers.

Examples with their reported activity coefficient follow.
COMPOUND	RESULT NUMBER
CCCCCCCC [octane] + CCCC[N+](C)(CCCC)CCCC.O=S(=O)([N-]S(=O)(=O)C(F)(F)F)C(F)(F)F	11.6
CCO [ethanol] + CCCCCCCCCC[N+](C)(C)C.O=S(=O)([N-]S(=O)(=O)C(F)(F)F)C(F)(F)F	1.29
CC(C)O [propan-2-ol] + CCCCCCCC[N+](CCCCCCCC)(CCCCCCCC)CCCCCCCC.O=S(=O)([N-]S(=O)(=O)C(F)(F)F)C(F)(F)F	1.21
C#CCCCC [1-hexyne] + CCCC[N+](C)(CCCC)CCCC.O=S(=O)([N-]S(=O)(=O)C(F)(F)F)C(F)(F)F	2.12
CCCCCCCCCCCC [dodecane] + CCCCCCCCCC[N+](C)(C)C.O=S(=O)([N-]S(=O)(=O)C(F)(F)F)C(F)(F)F	15.1

Items follow; give activity coefficient for each.
1. Cc1ccccc1C [1,2-dimethylbenzene] + CCCCCCCCCC[N+](C)(C)C.O=S(=O)([N-]S(=O)(=O)C(F)(F)F)C(F)(F)F
2. C=O [methanal] + CCCCCCCC[N+](C)(C)C.O=S(=O)([N-]S(=O)(=O)C(F)(F)F)C(F)(F)F
3. CC(C)CC(C)(C)C [2,2,4-trimethylpentane] + CCCCCCCC[N+](CCCCCCCC)(CCCCCCCC)CCCCCCCC.O=S(=O)([N-]S(=O)(=O)C(F)(F)F)C(F)(F)F
4. c1ccncc1 [pyridine] + CCCC[N+](C)(CCCC)CCCC.O=S(=O)([N-]S(=O)(=O)C(F)(F)F)C(F)(F)F
5. CCCCO [butan-1-ol] + CCCCCCCC[N+](CCCCCCCC)(CCCCCCCC)CCCCCCCC.O=S(=O)([N-]S(=O)(=O)C(F)(F)F)C(F)(F)F
6. CCCCCCCCCCC [undecane] + CCCCCCCC[N+](C)(C)C.O=S(=O)([N-]S(=O)(=O)C(F)(F)F)C(F)(F)F
7. CCC(C)=O [butanone] + CCCCCCCC[N+](C)(C)C.O=S(=O)([N-]S(=O)(=O)C(F)(F)F)C(F)(F)F

Return:
1.03
0.1
1.52
0.55
3.08
25.8
0.41

Items follow; give activity coefficient for each.
1. ClCCl [dichloromethane] + CCCCCCCCCC[N+](C)(C)C.O=S(=O)([N-]S(=O)(=O)C(F)(F)F)C(F)(F)F
2. CCCCO [butan-1-ol] + CCCCCCCCCC[N+](C)(C)C.O=S(=O)([N-]S(=O)(=O)C(F)(F)F)C(F)(F)F

Return:
[0.51, 1.7]

----------
TEST NAME: activity coefficient (dimensionless); of the first substance listed, at infinite dilution; xn = mol fraction of the nth substance listed
PARTICULARS: 343.15 K; Liquid; Chromatography; x1 = 0
Label class 1 for high-side activity coefficient (at or above 1) and class 0 for low-side activity coefficient (below it).

>>> df
                                   molecule  label_class
0  CC(C)OC(C)C [diisopropyl ether] + CCCCCCCC[N+](CCCCCCCC)(CCCCCCCC)CCCCCCCC.O=S(=O)([N-]S(=O)(=O)C(F)(F)F)C(F)(F)F      class 1
1  CC1CCCCC1 [methylcyclohexane] + CCCC[N+](C)(CCCC)CCCC.O=S(=O)([N-]S(=O)(=O)C(F)(F)F)C(F)(F)F      class 1
2  ClC(Cl)Cl [trichloromethane] + CCCC[N+](C)(CCCC)CCCC.O=S(=O)([N-]S(=O)(=O)C(F)(F)F)C(F)(F)F      class 0
3  C#CCCCC [1-hexyne] + CCCCCCCCCC[N+](C)(C)C.O=S(=O)([N-]S(=O)(=O)C(F)(F)F)C(F)(F)F      class 1

Okay, now this molecule:
Enquiry: In plain terms: is recorded activity coefficient at least 1 for CCCO [propan-1-ol] + CCCCCCCC[N+](C)(C)C.O=S(=O)([N-]S(=O)(=O)C(F)(F)F)C(F)(F)F ?
Return: class 1

----------
TEST NAME: activity coefficient (dimensionless); of the first substance listed, at infinite dilution; xn = mol fraction of the nth substance listed
PARTICULARS: 332.65 K; Liquid; Chromatography; x1 = 0
REPORTED ENDPOINT: activity coefficient
One number for each entry.

Examples with their reported activity coefficient follow.
>>> print(df.to_string())
                                   compound  result_number
0  ClCCl [dichloromethane] + CCCC[N+](C)(CCCC)CCCC.O=S(=O)([N-]S(=O)(=O)C(F)(F)F)C(F)(F)F           0.69
1  OCC(F)(F)F [2,2,2-trifluoroethanol] + CCCCCCCCCC[N+](C)(C)C.O=S(=O)([N-]S(=O)(=O)C(F)(F)F)C(F)(F)F           0.44
2  Cc1ccccc1C [1,2-dimethylbenzene] + CCCCCCCC[N+](C)(C)C.O=S(=O)([N-]S(=O)(=O)C(F)(F)F)C(F)(F)F           1.26

Items follow; give activity coefficient for each.
1. C1CCCCC1 [cyclohexane] + CCCCCCCC[N+](CCCCCCCC)(CCCCCCCC)CCCCCCCC.O=S(=O)([N-]S(=O)(=O)C(F)(F)F)C(F)(F)F
2. CCO [ethanol] + CCCCCCCC[N+](C)(C)C.O=S(=O)([N-]S(=O)(=O)C(F)(F)F)C(F)(F)F

Return:
[0.94, 1.32]

----------
TEST NAME: activity coefficient (dimensionless); of the first substance listed, at infinite dilution; xn = mol fraction of the nth substance listed
PARTICULARS: 332.65 K; Liquid; Chromatography; x1 = 0
REPORTED ENDPOINT: activity coefficient

Examples with their reported activity coefficient follow.
In [3]: df
Out[3]:
                                   compound     reported_endpoint  result
0  CC#N [acetonitrile] + CCCCCCCC[N+](C)(C)C.O=S(=O)([N-]S(=O)(=O)C(F)(F)F)C(F)(F)F  activity coefficient    0.46
1  C=CCCCC [hex-1-ene] + CCCCCCCC[N+](CCCCCCCC)(CCCCCCCC)CCCCCCCC.O=S(=O)([N-]S(=O)(=O)C(F)(F)F)C(F)(F)F  activity coefficient    1.05
2  CC(C)CC(C)(C)C [2,2,4-trimethylpentane] + CCCCCCCCCC[N+](C)(C)C.O=S(=O)([N-]S(=O)(=O)C(F)(F)F)C(F)(F)F  activity coefficient    5.29
3  C[N+](=O)[O-] [nitromethane] + CCCCCCCCCC[N+](C)(C)C.O=S(=O)([N-]S(=O)(=O)C(F)(F)F)C(F)(F)F  activity coefficient    0.58

Items follow; give activity coefficient for each.
1. CCCC(C)=O [pentan-2-one] + CCCCCCCC[N+](CCCCCCCC)(CCCCCCCC)CCCCCCCC.O=S(=O)([N-]S(=O)(=O)C(F)(F)F)C(F)(F)F
2. CC1CCCCC1 [methylcyclohexane] + CCCCCCCCCC[N+](C)(C)C.O=S(=O)([N-]S(=O)(=O)C(F)(F)F)C(F)(F)F
3. CCC(C)CC [3-methylpentane] + CCCCCCCC[N+](C)(C)C.O=S(=O)([N-]S(=O)(=O)C(F)(F)F)C(F)(F)F
4. CO [methanol] + CCCCCCCC[N+](CCCCCCCC)(CCCCCCCC)CCCCCCCC.O=S(=O)([N-]S(=O)(=O)C(F)(F)F)C(F)(F)F
5. Cc1ccccc1 [toluene] + CCCCCCCCCC[N+](C)(C)C.O=S(=O)([N-]S(=O)(=O)C(F)(F)F)C(F)(F)F

Return:
0.36
3.57
5.24
0.76
0.89

----------
TEST NAME: activity coefficient (dimensionless); of the first substance listed, at infinite dilution; xn = mol fraction of the nth substance listed
PARTICULARS: 322.85 K; Liquid; Chromatography; x1 = 0
Hi there, I'd appreciate the recorded activity coefficient for every entry that follows.
Numbers only.

>>> df
                                   molecule     reported_endpoint  result_number
0  CC1CCCCC1 [methylcyclohexane] + CCCCCCCC[N+](C)(C)C.O=S(=O)([N-]S(=O)(=O)C(F)(F)F)C(F)(F)F  activity coefficient           5.23
1  CCC(=O)CC [pentan-3-one] + CCCC[N+](C)(CCCC)CCCC.O=S(=O)([N-]S(=O)(=O)C(F)(F)F)C(F)(F)F  activity coefficient            0.5

Items follow; give activity coefficient for each.
1. C[N+](=O)[O-] [nitromethane] + CCCCCCCCCC[N+](C)(C)C.O=S(=O)([N-]S(=O)(=O)C(F)(F)F)C(F)(F)F
2. CCOCC [diethyl ether] + CCCC[N+](C)(CCCC)CCCC.O=S(=O)([N-]S(=O)(=O)C(F)(F)F)C(F)(F)F

Return:
0.56
1.65
